- Tested on: Liver microsome
- assay info: Prodrug conversion in rat liver microsomes assessed as elution time treated with 10 uM DB868 after 180 mins incubation by HPLC-UV chromatography
- Type: ADME
- setup conditions: 3 h
test readout: Retention_time (min)
Record the value in min, omitting the unit from your answer.

response.value for N=C(NO)c1ccc(-c2ccc(-c3ccc(C(=N)NO)cn3)o2)nc1 (field: Retention_time) = 10.5

response.value for N=C(N)c1ccc(-c2ccc(-c3ccc(/C(N)=N/O)cn3)o2)nc1 (field: Retention_time) = 8.3

response.value for CO/N=C(/N)c1ccc(-c2ccc(-c3ccc(/C(N)=N/O)cn3)o2)nc1 (field: Retention_time) = 14.5

response.value for CO/N=C(\N)c1ccc(-c2ccc(-c3ccc(C(=N)N)cn3)o2)nc1 (field: Retention_time) = 12.3

###

- Tested on: Liver microsome
- assay info: Drug metabolism in human liver microsomes assessed as (3Z,3'Z)-6,6'-(furan-2,5-diyl)bis(N'-hydroxynicotinimidamide) formation measured by HPLC-MS/MS analysis
- Format: ADME
test readout: S50
A complete answer gives the number and then names the unit.

The reported Liver microsome S50 of CO/N=C(/N)c1ccc(-c2ccc(-c3ccc(/C(N)=N/O)cn3)o2)nc1 is 18 µM

###

- assay info: Biotransformation in sandwich-cultured rat hepatocytes assessed as depletion of compound at 10 uM after 4 hrs of incubation by HPLC-MS/MS analysis
- Type: ADME, cell-based, Hepatocyte
- setup conditions: read-out: Drug metabolism
test readout: metabolised at 4 h, 10 µM

response.value for CO/N=C(\N)c1ccc(-c2ccc(-c3ccc(/C(N)=N/OC)cn3)o2)nc1.Cl (field: metabolised at 4 h, 10 µM) = 50%

###

I'd appreciate it if you could supply Retention_time values for the items below.
- Tested on: Liver microsome
- assay info: Prodrug conversion in human liver microsomes assessed as elution time treated with 10 uM DB868 after 180 mins incubation by HPLC-UV chromatography
- Format: ADME
- setup conditions: 3 h
Record the value in min, omitting the unit from your answer.

The reported Liver microsome Retention_time of N=C(N)c1ccc(-c2ccc(-c3ccc(/C(N)=N/O)cn3)o2)nc1 is 8.3

The reported Liver microsome Retention_time of CO/N=C(\N)c1ccc(-c2ccc(-c3ccc(C(=N)N)cn3)o2)nc1 is 12.3

The reported Liver microsome Retention_time of Cl.N=C(N)c1ccc(-c2ccc(-c3ccc(C(=N)N)cn3)o2)nc1 is 5.8

The reported Liver microsome Retention_time of N=C(NO)c1ccc(-c2ccc(-c3ccc(C(=N)NO)cn3)o2)nc1 is 10.5

The reported Liver microsome Retention_time of CO/N=C(/N)c1ccc(-c2ccc(-c3ccc(/C(N)=N/O)cn3)o2)nc1 is 14.5

# credit: ChEMBL document CHEMBL3525966
